Source listed as PubChem BioAssay AID1745844.

# Tested on: rodent lifetime carcinogenesis bioassay, tumor incidence TD50
# EXPERIMENT SUMMARY: carcinogenic potency in animals, long-term in vivo studies, CPDB compilation (AID 1745844)
# TEST SETTINGS: rat; strain Fischer 344; males; inhaled; site: liver; lesion: hepatocellular adenoma + hepatoblastoma + hepatocellular carcinoma; dosed 122 weeks; study length 124 weeks
MEASURED PARAMETER: TD50 (mg/kg/day)
One number for each entry, in mg/kg/day.

query: Using the record for "O=[O+][O-]" , state its measured TD50.
result: 2.41

----------
# System: rodent lifetime carcinogenesis bioassay, tumor incidence TD50
# EXPERIMENT SUMMARY: carcinogenic potency in animals, long-term in vivo studies, CPDB compilation (AID 1745844)
# TEST SETTINGS: hamster; strain Syrian Golden; females; in drinking water; site: skin; lesion: melanotic tumor; dosed 55 weeks; study length 55 weeks
MEASURED PARAMETER: TD50 (mg/kg/day)
Numbers only, in mg/kg/day.

query: Using the record for "CCOC(N)=O" , state its measured TD50.
result: 496
